Tested on: Enterococcus sp.
Assay: in vitro antibacterial evaluation, MIC by broth dilution
Assay type: cell-based
Conditions: strain GC 3059; broth dilution, 18 hours at 35° C.
parameter: MIC Enterococcus faecalis (GC 3059) (µg/mL)
Numbers only, in µg/mL.

• COc1cccc(C2OC3C(OC4C(CO)OC(Oc5ccc(CC6NC(=O)C(C(C)c7ccccc7)NC(=O)CNC(=O)C(CO)NC(=O)C(C(O)C7CNC(=N)N7C7OC(CO)C(O)C(O)C7O)NC(=O)C(C(O)C7CNC(=N)N7)NC6=O)cc5)C(O)C4O)OC(CO)C(O)C3O2)c1 (single isomer, unassigned) [Example 137b] = 64

Now for another entry.
# input Give its MIC Enterococcus faecalis (GC 3059) value. Item: CC(c1ccccc1)C1NC(=O)CNC(=O)C(CO)NC(=O)C(C(O)C2CNC(=N)N2C2OC(CO)C(O)C(O)C2O)NC(=O)C(C(O)C2CNC(=N)N2)NC(=O)C(Cc2ccc3oc(C=C(c4ccccc4)c4ccccc4)nc3c2)NC1=O (stereo not drawn)
# output 16

* * *

Tested on: Staphylococcus sp.
Experiment: in vitro antibacterial evaluation, MIC by broth dilution
Assay type: cell-based
Conditions: broth dilution, 18 hours at 35° C.; strain GC 4549
parameter: MIC Coagulase Negative Staphylococcus (GC 4549) (µg/mL)
Give bare numbers, in µg/mL.

- CC(c1ccccc1)C1NC(=O)CNC(=O)C(CO)NC(=O)C(C(O)C2CNC(=N)N2C2OC(CO)C(O)C(O)C2O)NC(=O)C(C(O)C2CNC(=N)N2)NC(=O)C(Cc2ccc(OC3OC(CO)C(OC4OC(CO)C(O)C(OCc5ccc(OCc6ccccc6)cc5)C4O)C(O)C3O)cc2)NC1=O (stereo not drawn) [Example 231c]: 0.5

# input Requested read-out MIC Coagulase Negative Staphylococcus (GC 4549), target or system Staphylococcus sp., entry CC(c1ccccc1)C1NC(=O)CNC(=O)C(CO)NC(=O)C(C(O)C2CNC(=N)N2C2OC(CO)C(O)C(O)C2O)NC(=O)C(C(O)C2CNC(=N)N2)NC(=O)C(Cc2ccc(OC3OC(CO)C(OC4OC(CO)C(OCC=Cc5ccc(N(C)C)cc5)C(O)C4O)C(O)C3O)cc2)NC1=O (stereo not drawn) [Example 243a]
# output 16

* * *

Test system: Staphylococcus sp.
Test: in vitro antibacterial evaluation, MIC by broth dilution
Type: cell-based
Details: strain GC 4546; broth dilution, 18 hours at 35° C.
Define the label as 1 when MIC Staphylococcus haemolyticus (GC 4546) is strictly less than 8 µg/mL and as 0 in all remaining cases.

• CC(c1ccccc1)C1NC(=O)CNC(=O)C(CO)NC(=O)C(CC2CN(Cc3ccccc3)C(=NCc3ccccc3)N2C2OC(CO)C(O)C(O)C2O)NC(=O)C(CC2CN(Cc3ccccc3)C(=NCc3ccccc3)N2Cc2ccccc2)NC(=O)C(Cc2ccc(OC3OC(CO)C(OC4OC(CO)C(O)C(O)C4O)C(O)C3O)cc2)NC1=O (stereo not drawn) = 0

# input Below 8 µg/mL on MIC Staphylococcus haemolyticus (GC 4546)? Entry CN=C1N(C)CC(CC2NC(=O)C(Cc3ccc(OC4OC(CO)C(OC5OC(CO)C(O)C(O)C5O)C(O)C4O)cc3)NC(=O)C(C(C)c3ccccc3)NC(=O)CNC(=O)C(CO)NC(=O)C(CC3CN(C)C(=NC)N3C3OC(CO)C(O)C(O)C3O)NC2=O)N1C (stereo not drawn)
# output 0

# input Below 8 µg/mL on MIC Staphylococcus haemolyticus (GC 4546)? Entry N=C1NCC(C(O)C2NC(=O)C(Cc3ccc(OC4OC(CO)C(OC5OC6COC7(OC6C(O)C5O)C5CC6CC(C5)CC7C6)C(O)C4O)cc3)NC(=O)C(Cc3ccccc3)NC(=O)CNC(=O)C(CO)NC(=O)C(C(O)C3CNC(=N)N3C3OC(CO)C(O)C(O)C3O)NC2=O)N1 (stereo not drawn)
# output 1

# input Below 8 µg/mL on MIC Staphylococcus haemolyticus (GC 4546)? Entry CC(C1CCCCC1)C1NC(=O)CNC(=O)C(CO)NC(=O)C(C(O)C2CNC(=N)N2C2OC(CO)C(O)C(O)C2O)NC(=O)C(C(O)C2CNC(=N)N2)NC(=O)C(CC2CCC(OC3OC(CO)C(OC4OC(CO)C(O)C(O)C4O)C(O)C3O)CC2)NC1=O (stereo not drawn) [Example 53a]
# output 0
